Biological target: Estrogen receptor (Homo sapiens)
Sequence (P03372 whole entry): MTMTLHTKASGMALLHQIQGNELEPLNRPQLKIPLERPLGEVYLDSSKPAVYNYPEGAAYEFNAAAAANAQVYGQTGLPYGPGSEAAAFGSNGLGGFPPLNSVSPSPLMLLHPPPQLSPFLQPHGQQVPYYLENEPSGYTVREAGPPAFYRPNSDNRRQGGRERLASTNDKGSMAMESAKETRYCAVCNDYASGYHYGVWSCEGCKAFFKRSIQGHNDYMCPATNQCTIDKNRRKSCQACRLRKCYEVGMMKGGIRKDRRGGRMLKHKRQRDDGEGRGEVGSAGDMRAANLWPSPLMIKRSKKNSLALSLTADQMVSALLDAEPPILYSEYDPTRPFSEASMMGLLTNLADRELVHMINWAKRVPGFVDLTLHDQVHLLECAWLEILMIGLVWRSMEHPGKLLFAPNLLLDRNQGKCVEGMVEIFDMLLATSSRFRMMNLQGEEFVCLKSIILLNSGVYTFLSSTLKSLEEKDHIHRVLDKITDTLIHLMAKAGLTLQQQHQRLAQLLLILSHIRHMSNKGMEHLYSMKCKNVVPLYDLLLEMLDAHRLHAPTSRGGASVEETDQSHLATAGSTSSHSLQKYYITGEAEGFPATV
measured_endpoint: pIC50
Please note pIC50 is a logarithmic value: minus log10 of concentration in mol/L. Answer with that number alone.

Task: Find pIC50 (Estrogen receptor (Homo sapiens)) for the entry CC(C)CCC[C@@H](C)CCC[C@@H](C)CCC[C@@H]1Cc2cc(O)ccc2[C@H]2CC[C@]3(C)[C@@H](O)CC[C@H]3[C@H]12
Output: 6.71

----------
Biological target: Estrogen receptor beta (Homo sapiens)
Sequence (Q92731 whole entry): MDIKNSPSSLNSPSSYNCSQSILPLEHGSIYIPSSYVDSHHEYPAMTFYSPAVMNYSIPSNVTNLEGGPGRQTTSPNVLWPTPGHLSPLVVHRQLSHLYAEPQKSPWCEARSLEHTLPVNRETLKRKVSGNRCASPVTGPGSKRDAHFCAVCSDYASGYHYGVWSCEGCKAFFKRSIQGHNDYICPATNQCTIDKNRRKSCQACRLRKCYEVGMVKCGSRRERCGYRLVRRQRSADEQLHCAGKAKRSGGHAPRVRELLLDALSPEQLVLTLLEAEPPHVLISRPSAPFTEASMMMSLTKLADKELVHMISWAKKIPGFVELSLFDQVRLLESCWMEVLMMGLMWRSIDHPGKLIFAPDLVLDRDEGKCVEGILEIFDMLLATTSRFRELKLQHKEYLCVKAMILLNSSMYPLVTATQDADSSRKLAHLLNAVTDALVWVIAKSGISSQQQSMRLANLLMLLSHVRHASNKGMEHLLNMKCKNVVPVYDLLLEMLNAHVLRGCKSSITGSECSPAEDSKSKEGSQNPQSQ
measured_endpoint: IC50 (nM)
Please give a number only; it is taken to be in nM.

Task: Find IC50 (Estrogen receptor beta (Homo sapiens)) for the entry CC(C)CCC[C@@H](C)CCC[C@@H](C)CCC[C@@H]1Cc2cc(O)ccc2[C@H]2CC[C@]3(C)[C@@H](O)CC[C@H]3[C@H]12
Output: 267

Data provenance is ChEMBL document CHEMBL1148765.
